# key: entry, value: TGI
- Test system: SF-539 CNS
- assay_protocol: NCI tumour cell line growth inhibition, 48 h
Return type: number; implicit unit µM.

Worked set:
compound: N#CC(C#N)N=Nc1ccc(-c2nc3ccccc3[nH]2)cc1
unit_text: µM
TGI: 35.5
--
compound: Cn1c2c(c3ccc(-c4ccn[nH]4)cc3c1=O)C(=O)c1ccccc1-2
unit_text: µM
TGI: 11.4
--
compound: CC(C)OC(=O)c1ccc(CCc2cc(O)c(Br)cc2O)cc1
unit_text: µM
TGI: 15.7
--
compound: CC(C)CCC[C@@H](C)[C@H]1CCC2C3=CCn4c(=O)ccc(=O)n4C3CC[C@@]21C (stereo not given in full)
unit_text: µM
TGI: 2.79

# ---- query compound ----
# input Name the recorded TGI of CN1C(=O)/C(=C/c2c(Cl)[nH]c3ccccc23)c2ccccc21 , assay system SF-539 CNS.
# output 75.6

---

# key: entry, value: TGI
- Tested on: OVCAR-8 ovarian
- assay_protocol: NCI tumour cell line growth inhibition, 48 h

compound: CC(NNC(=S)N1CCCCCC1)c1cccnn1 (stereo unspecified)
target_of_assay: OVCAR-8 ovarian
TGI: > 100 µM
--
compound: Cn1c2c(c3ccc(-c4ccn[nH]4)cc3c1=O)C(=O)c1ccccc1-2
target_of_assay: OVCAR-8 ovarian
TGI: 34.6 µM
--
compound: CC1=CCCC(C)(O)C2CC(CCC3(C)OC3CC1)C(C)C(=O)O2 (stereo unspecified)
target_of_assay: OVCAR-8 ovarian
TGI: > 100 µM
--
compound: S=C(NC/C(Br)=C/Br)Nc1cccc2ccccc12
target_of_assay: OVCAR-8 ovarian
TGI: > 100 µM

# input Supply reported TGI belonging to this compound: C=CCCCC(C#N)(c1ccccc1)N1CCCC1 (stereo unspecified)
# output > 100 µM

# input Supply reported TGI belonging to this compound: Cn1c2c(c3ccccc31)C1C(=O)N(c3ccccc3)C(=O)C1CC2 (stereo unspecified)
# output > 303 µM

# input Supply reported TGI belonging to this compound: CCOC(=O)C(NC(=O)CC)(Nc1ccc(S(=O)(=O)Nc2ncccn2)cc1)C(F)(F)F (stereo unspecified)
# output > 100 µM

# input Supply reported TGI belonging to this compound: COC1=CC(=C(C#N)C(=Nc2ccccc2)SC)C=C(OC)C1=O
# output > 100 µM

# input Supply reported TGI belonging to this compound: CC(C)(C)c1ccc2c(c1)C(O)(c1ccccc1)c1cc(C(C)(C)C)ccc1C2(O)C(F)(F)F (stereo unspecified)
# output 4.29 µM

# input Supply reported TGI belonging to this compound: CC#CC(OCC)(OCC)OCC
# output > 100 µM

# input Supply reported TGI belonging to this compound: CCOc1cc(C(c2c(O)c3ccccc3oc2=O)c2c(O)c3ccccc3oc2=O)ccc1OC
# output 42.4 µM

---

- System: T-47D breast
- assay_protocol: NCI tumour cell line growth inhibition, 48 h
# key: entry, value: TGI

Worked set:
molecule: C=C(CN(C)C)C1(c2ccccc2)CC2(CCCC2)C(=O)O1 (stereo unspecified)
TGI: > 100 µM
//
molecule: S=C(NC/C(Br)=C/Br)Nc1cccc2ccccc12
TGI: > 100 µM

# input Supply reported TGI belonging to this molecule: CC(=O)N1N=C(c2cc(C)ccc2O)CC1c1cccc(Cl)c1 (stereo unspecified)
# output > 100 µM

# input Supply reported TGI belonging to this molecule: NC(=O)NC(=O)c1cccc(NC(=O)CI)c1
# output 4.3 µM

# input Supply reported TGI belonging to this molecule: O=C(CCN1CCCCC1)Nc1ccc2sc3ccccc3c(=O)c2n1
# output 93.6 µM
